Exercise: for every item that follows, state its recorded IC50.
# Tested on: U-266
# Protocol details: Antiproliferative activity against human U266 cells measured after 72 hrs by MTS assay
# Format: functional, cell-based
# Cond: U-266, 72 h
Numbers only, in nM.

Molecule smiles: Br.N=C(N)SCc1ccc(CN2C(=O)C(=O)c3cc(C(F)(F)F)ccc32)cc1
Measured on: U-266
Measurement: 2600

Now look at this one.
# IC50 of "Br.N=C(N)SCc1ccc(CN2C(=O)C(=O)c3cc(Cl)cc(Cl)c32)cc1" = 2700

---

Exercise: for every item that follows, state its recorded IC50.
# Protocol details: Antiproliferative activity against human 1205Lu cells measured after 72 hrs by MTS assay
# Format: functional, cell-based
Numbers only, in µM.

Molecule smiles: Br.N=C(N)SCc1ccc(CN2C(=O)C(=O)c3cc(Cl)cc(Cl)c32)cc1
IC50 [µM]: 2.4

Attention now turns to another entry.
// IC50 lookup, molecule = "Br.N=C(N)SCc1ccc(CN2C(=O)C(=O)c3cc(C(F)(F)F)ccc32)cc1" , result: 5.7

All figures here come from ChEMBL document CHEMBL4706494.
